Test system: Nucleic Acid
Experiment: Displacement of ethidium bromide from DNA by titration
quantity_kind: C50 (µM)

CN(C)CCNC(=O)c1cccc2c(NCCn3nnc4ccccc43)c3ccccc3nc12
30
CN(C)CCNC(=O)c1cccc2c(NCCN=[N+]=[N-])c3ccccc3nc12
13.6
CN1CCN(C(=O)c2cccc3c(NCCn4nnc5ccccc54)c4ccccc4nc23)CC1
93.2
CN(C)CCNC(=O)c1ccc2c(NCCN=[N+]=[N-])c3ccccc3nc2c1
17.6

I: CN(C)CCNC(=O)c1ccc2c(NCCn3nnc4ccccc43)c3ccccc3nc2c1
II: CN1CCN(C(=O)c2ccc3c(NCCn4nnc5ccccc54)c4ccccc4nc3c2)CC1
Please choose the item with the lower C50 value from this pair: I and II # answer = label of selected item
I
